Tested on: Mus musculus
Assay: Increase in life of span over controls, 10e5 L1210 cells per mouse of 20 g, by ip route LD0/10 ata conc of LD0/10(N)
Type: functional
Design: unit not given here
OBSERVATION_TYPE: ILS

CPD_SMILES: COc1ccc2[nH]c3c(C)c4ccnc(NCCC(C)C)c4c(C)c3c2c1
ILS: 10
//
CPD_SMILES: CCNc1nccc2c(C)c3[nH]c4ccc(OC)cc4c3c(C)c12
ILS: 2
//
CPD_SMILES: CCCNc1nccc2c(C)c3[nH]c4ccc(OC)cc4c3c(C)c12
ILS: 0

Kindly review the next molecule as well.
// fetch Mus musculus ILS for "COc1ccc2[nH]c3c(C)c4ccnc(N)c4c(C)c3c2c1"
21

====

System: Mus musculus
Test: In vivo antitumor effect, expressed as the lethal dose (LD100), administered by intraperitoneal route
Type: ADME, organism-based
Conditions: ip
Would you kindly list LD100 for each of these compounds?
Please make sure the unit comes right after the number.

Hello, I would appreciate it if you could give LD100 for each entry below.
1. COc1ccc2[nH]c3c(C)c4ccnc(N)c4c(C)c3c2c1
2. CCNc1nccc2c(C)c3[nH]c4ccc(OC)cc4c3c(C)c12
3. CCCNc1nccc2c(C)c3[nH]c4ccc(OC)cc4c3c(C)c12
4. COc1ccc2[nH]c3c(C)c4ccnc(NCCC(C)C)c4c(C)c3c2c1

1. 70 mg/kg
2. 90 mg/kg
3. 200 mg/kg
4. 350 mg/kg

====

Kindly supply the reported LD0 values for the records listed here.
Test system: Mus musculus
Test: In vivo antitumor effect, expressed as the highest nonlethal dose (LD0), administered by intraperitoneal route
Format: ADME, organism-based
Conditions: ip

Here are 4 compounds together with their reported answers.
CPD_SMILES: COc1ccc2[nH]c3c(C)c4ccnc(NCC(C)C)c4c(C)c3c2c1
LD0: > 200 mg/kg

CPD_SMILES: CCCNc1nccc2c(C)c3[nH]c4ccc(OC)cc4c3c(C)c12
LD0: 100 mg/kg

CPD_SMILES: COc1ccc2[nH]c3c(C)c4ccnc(NCCC(C)C)c4c(C)c3c2c1
LD0: 300 mg/kg

CPD_SMILES: CCNc1nccc2c(C)c3[nH]c4ccc(OC)cc4c3c(C)c12
LD0: 70 mg/kg

Form entry - test system: Mus musculus; read-out: LD0; compound: "COc1ccc2[nH]c3c(C)c4ccnc(N)c4c(C)c3c2c1"
60 mg/kg

====

Test system: Nucleic Acid
Assay: Apparent binding constant (Kapp) to DNA, by direct fluorimetric titration, at pH 5; 10e-6
Type: nucleic-acid assay
Conditions: Bos taurus
Please respond with reported K app for every item in the list.

Here are 3 compounds together with their reported answers.
CPD_SMILES: COc1ccc2[nH]c3c(C)c4ccnc(N)c4c(C)c3c2c1
K app: 1e+06 M⁻¹
//
CPD_SMILES: COc1ccc2[nH]c3c(C)c4ccnc(NCCC(C)C)c4c(C)c3c2c1
K app: 3.75e+06 M⁻¹
//
CPD_SMILES: COc1ccc2[nH]c3c(C)c4ccnc(NCC(C)C)c4c(C)c3c2c1
K app: 2.35e+06 M⁻¹

// for each compound below, give its K app
1. CCNc1nccc2c(C)c3[nH]c4ccc(OC)cc4c3c(C)c12
2. CCCNc1nccc2c(C)c3[nH]c4ccc(OC)cc4c3c(C)c12

["2.15e+06 M⁻¹", "2e+06 M⁻¹"]

====

System: Nucleic Acid
Test: Maximum number of sites
Format: nucleic-acid assay
Settings: Bos taurus
Would you kindly list rapp for each of these molecules?

Known rapp results, listed for orientation:
CPD_SMILES: COc1ccc2[nH]c3c(C)c4ccnc(NCCC(C)C)c4c(C)c3c2c1
rapp: 0.2
--
CPD_SMILES: CCNc1nccc2c(C)c3[nH]c4ccc(OC)cc4c3c(C)c12
rapp: 0.2
--
CPD_SMILES: COc1ccc2[nH]c3c(C)c4ccnc(N)c4c(C)c3c2c1
rapp: 0.2

Please look at the items below and tell me rapp for each one, in order.
1. COc1ccc2[nH]c3c(C)c4ccnc(NCC(C)C)c4c(C)c3c2c1
2. CCCNc1nccc2c(C)c3[nH]c4ccc(OC)cc4c3c(C)c12

1: 0.17; 2: 0.2
